Each recorded value in this set is attributed to paper PMC7294232.

Test system: Chinese hamster ovarian (CHO) cells
Test: in vitro cytotoxicity, MTT-assay
Assay type: cell-based
Settings: IC50 CHO/IC50 NF54
Listed here are compounds together with their documented SI (selectivity index).
Reply with the value as a number alone.

The following compounds have reported results that may help.
C=CCN1CCC(CNc2ccnc3ccccc23)C(C)(C)C1 (stereo not drawn) [Compound 16c] | 114
C=CCN1CCC(CNc2ccnc3cc(Cl)ccc23)C(C)(C)C1 (stereo not drawn) [Compound 16b] | 1991
Clc1ccc2c(NCC3CC4(c5ccccc5)CCN3C4)ccnc2c1 (stereo not drawn) [Compound 11a] | 1266

## Task SI (selectivity index) for C=CCN1C[C@@H](OCc2ccccc2)[C@@H](CNCc2ccc3ccccc3n2)C(C)(C)C1 (relative stereo) [Compound 17c] ?
## Result 134

## Task SI (selectivity index) for c1ccc(C23CCN(C2)C(CNc2ccnc4ccccc24)C3)cc1 (stereo not drawn) [Compound 11b] ?
## Result 250

## Task SI (selectivity index) for Oc1cccc2ccc(CNCC3CC4(c5ccccc5)CCN3C4)nc12 (stereo not drawn) [Compound 12d] ?
## Result 142

## Task SI (selectivity index) for C=CCN1C[C@@H](OCc2ccccc2)[C@@H](CNCc2cc3ccccc3nc2Cl)C(C)(C)C1 (relative stereo) [Compound 17f] ?
## Result 156

## Task SI (selectivity index) for C=CCN1C[C@@H](OCc2ccccc2)[C@@H](CNCc2ccnc3ccccc23)C(C)(C)C1 (relative stereo) [Compound 17a] ?
## Result 59

###

Tested on: Chinese hamster ovarian (CHO) cells
Experiment: in vitro cytotoxicity, MTT-assay
Format: cell-based
Settings: Cricetulus griseus, CHO, reference value for compound subset c
Description: An antiplasmodium assay was performed on this set of 18 novel quinoline-piperidine analogues to establish their potential as antimalarial agents. […] Subsequently, compounds showing promising antiplasmodium activity were also tested against a CQ-resistant strain of P. falciparum (K1) and analysed for in vitro cytotoxicity against a mammalian cell line, Chinese hamster ovarian (CHO) cells, using the 3-(4,5-dimethylthiazol-2-yl)-2,5-diphenyltetrazoliumbromide (MTT)-assay. […]
QUANTITY: IC50 (µM)
All answers are understood in µM, so give the number only.

## Task IC50 for CC[C@H]1CN2CCc3cc(OC)c(OC)cc3[C@@H]2C[C@@H]1C[C@H]1NCCc2cc(OC)c(OC)cc21 [Emetine, reference compound] ?
## Result 0.04

###

Tested on: CQ-sensitive strain of P. falciparum (NF54)
Experiment: in vitro antiplasmodium assay (parasite lactate dehydrogenase), CQ-sensitive strain
Format: cell-based, Plasmodium falciparum
Details: Plasmodium falciparum, NF54, read-out: NF54 IC50, reference value for compound subset e
QUANTITY: IC50
A bare number is not enough; add the unit after it.

## Task IC50 for CCN(CC)CCCC(C)Nc1ccnc2cc(Cl)ccc12 (stereo not shown) [Chloroquine, reference compound] ?
## Result 20 nM

###

System: Chinese hamster ovarian (CHO) cells
Assay: in vitro cytotoxicity, MTT-assay
Type: cell-based
Conditions: Cricetulus griseus, CHO, cytotoxicity, CHO cells, MTT; mean ± SD
Listed here are compounds together with their documented pIC50.
pIC50 (log units): -log10 of the concentration in mol/L.

C=CCN1C[C@@H](OCc2ccccc2)[C@@H](CNCc2cc3ccccc3nc2Cl)C(C)(C)C1 (relative stereo) [Compound 17f] | 3.70

## Task Give Chinese hamster ovarian (CHO) cells pIC50 for C=CCN1CCC(CNc2ccnc3ccccc23)C(C)(C)C1 (stereo not drawn) [Compound 16c]
## Result 4.57

## Task Give Chinese hamster ovarian (CHO) cells pIC50 for Clc1ccc2c(NCC3CC4(c5ccccc5)CCN3C4)ccnc2c1 (stereo not drawn) [Compound 11a]
## Result 4.59

## Task Give Chinese hamster ovarian (CHO) cells pIC50 for Oc1cccc2ccc(CNCC3CC4(c5ccccc5)CCN3C4)nc12 (stereo not drawn) [Compound 12d]
## Result 3.99

## Task Give Chinese hamster ovarian (CHO) cells pIC50 for C=CCN1C[C@@H](OCc2ccccc2)[C@@H](CNCc2ccnc3ccccc23)C(C)(C)C1 (relative stereo) [Compound 17a]
## Result 3.86

## Task Give Chinese hamster ovarian (CHO) cells pIC50 for c1ccc(C23CCN(C2)C(CNc2ccnc4ccccc24)C3)cc1 (stereo not drawn) [Compound 11b]
## Result 4.95

## Task Give Chinese hamster ovarian (CHO) cells pIC50 for C=CCN1CCC(CNc2ccnc3cc(Cl)ccc23)C(C)(C)C1 (stereo not drawn) [Compound 16b]
## Result 4.52

## Task Give Chinese hamster ovarian (CHO) cells pIC50 for C=CCN1C[C@@H](OCc2ccccc2)[C@@H](CNCc2ccc3ccccc3n2)C(C)(C)C1 (relative stereo) [Compound 17c]
## Result 3.68

## Task Give Chinese hamster ovarian (CHO) cells pIC50 for C=CCN1C[C@@H](OCc2ccccc2)[C@@H](CNc2ccnc3cc(Cl)ccc23)C(C)(C)C1 (relative stereo) [Compound 16a]
## Result 3.91
